experiment: Multiple-dose plasma PK of IV Compound A in patients with NT2; format: in vivo, human; details: human, plasma, intravenous, 112 mg, Cmpd A 112 mg; Day 1; read-out: AUCtau Geo mean
Measurement Kind: AUC (ng·h/mL)
Give bare numbers, in ng·h/mL.

Please fill in: AUC reported for `COC(=O)N1CCC[C@H](NS(C)(=O)=O)[C@@H]1CO[C@H]1CC[C@@H](c2ccccc2)CC1` = 1500

----------
Experiment: Plasma PK of Compound A after a single 9-hour IV infusion in sleep-deprived healthy male subjects
Assay type: in vivo, human
Conditions: male, human, plasma, iv, 44 mg, 44 mg 9-h IV infusion; 4 h post infusion start; read-out: Plasma concentration (Mean)
Description: This was a phase 1b, single-center, randomized, double-blind, double-dummy, placebo- and active-controlled, 4-period Williams design crossover study to evaluate the PK, PD, and safety of Compound A in sleep-deprived healthy volunteers. Compound A was administered as a 9-hour IV infusion. […] During the day before dosing on Day 1, participants were administered the KSS at scheduled timepoints. […] Subject's vital signs, including BP, were monitored during the dosing and testing period. […]
Measurement Kind: concentration at 4 h (ng/mL)
Answers are plain numbers, in ng/mL.

Please fill in: concentration at 4 h reported for COC(=O)N1CCC[C@H](NS(C)(=O)=O)[C@@H]1CO[C@H]1CC[C@@H](c2ccccc2)CC1 [Compound A] = 89.3

----------
assay: Multiple-dose plasma PK of IV Compound A in patients with NT2; assay type: in vivo, human; details: human, plasma, intravenous, 44 mg, Cmpd A 44 mg; Day 7
Measurement Kind: Tmax (h)
Give bare numbers, in h.

Please fill in: Tmax reported for `COC(=O)N1CCC[C@H](NS(C)(=O)=O)[C@@H]1CO[C@H]1CC[C@@H](c2ccccc2)CC1` = 3.91

----------
experiment: Plasma PK of Compound A after a single 9-hour IV infusion in sleep-deprived healthy male subjects; assay type: in vivo, human; conditions: male, human, plasma, iv, 44 mg, 44 mg [LD] single 9-hour IV infusion; read-out: Vss (Mean)
Measurement Kind: Vd (L)
Numbers only, in L.

Please fill in: Vd reported for `COC(=O)N1CCC[C@H](NS(C)(=O)=O)[C@@H]1CO[C@H]1CC[C@@H](c2ccccc2)CC1` = 107

----------
assay: Plasma PK of Compound A after a single 9-hour IV infusion in sleep-deprived healthy male subjects; assay type: in vivo, human; settings: male, human, plasma, iv, 112 mg, 112 mg [HD] single 9-hour IV infusion; read-out: Vss (Mean)
Measurement Kind: Vd (L)
Numbers only, in L.

Please fill in: Vd reported for COC(=O)N1CCC[C@H](NS(C)(=O)=O)[C@@H]1CO[C@H]1CC[C@@H](c2ccccc2)CC1 [Compound A] = 112

----------
assay: Plasma PK of Compound A after a single 9-hour IV infusion in sleep-deprived healthy male subjects; format: in vivo, human; conditions: male, human, plasma, iv, 44 mg, 44 mg [LD] single 9-hour IV infusion; read-out: Vz (Mean)
Measurement Kind: Vd (L)
Numbers only, in L.

Please fill in: Vd reported for `COC(=O)N1CCC[C@H](NS(C)(=O)=O)[C@@H]1CO[C@H]1CC[C@@H](c2ccccc2)CC1` = 207

----------
test: Plasma PK of Compound A after a single 9-hour IV infusion in sleep-deprived healthy male subjects; assay type: in vivo, human; details: male, human, plasma, iv, 112 mg, 112 mg 9-h IV infusion; 6 h post infusion end; read-out: Plasma concentration (GM)
Measurement Kind: concentration at 6 h (ng/mL)
One number for each entry, in ng/mL.

Please fill in: concentration at 6 h reported for COC(=O)N1CCC[C@H](NS(C)(=O)=O)[C@@H]1CO[C@H]1CC[C@@H](c2ccccc2)CC1 [Compound A] = 23.6

----------
experiment: Multiple-dose plasma PK of IV Compound A in patients with NT2; assay type: in vivo, human; conditions: human, plasma, intravenous, 44 mg, Cmpd A 44 mg; Day 1; read-out: Cmax Mean
Measurement Kind: Cmax
The number alone won't do; follow it with the unit.

Please fill in: Cmax reported for `COC(=O)N1CCC[C@H](NS(C)(=O)=O)[C@@H]1CO[C@H]1CC[C@@H](c2ccccc2)CC1` = 74.1 ng/mL

----------
Assay: Multiple-dose plasma PK of IV Compound A in patients with NT2
Format: in vivo, human
Conditions: human, plasma, intravenous, 44 mg, Cmpd A 44 mg; Day 7; read-out: CL Mean (converted)
Experimental: The purpose of the study was to evaluate the safety, tolerability, pharmacokinetics and pharmacodynamics of Compound A after multiple days of IV administration in patients with NT2. NT2 patients were evaluated in Cohort C1 and C2 (Table 30). Compound A or placebo were administered via IV infusion over 9 hours once daily for 7 days. […] In this part, potential efficacy of Compound A was evaluated with MWT, ESS, KSS, night-time PSG (NPSG), and PGI-C as an exploratory PD assessment. […]
Measurement Kind: clearance
The number alone won't do; follow it with the unit.

Please fill in: clearance reported for `COC(=O)N1CCC[C@H](NS(C)(=O)=O)[C@@H]1CO[C@H]1CC[C@@H](c2ccccc2)CC1` = 1120 mL/min

----------
experiment: Plasma PK of Compound A after a single 9-hour IV infusion in sleep-deprived healthy male subjects; assay type: in vivo, human; settings: male, human, plasma, iv, 112 mg, 112 mg 9-h IV infusion; 4 h post infusion end; read-out: Plasma concentration (GM)
Measurement Kind: concentration at 4 h (ng/mL)
Answers are plain numbers, in ng/mL.

Please fill in: concentration at 4 h reported for COC(=O)N1CCC[C@H](NS(C)(=O)=O)[C@@H]1CO[C@H]1CC[C@@H](c2ccccc2)CC1 [Compound A] = 40.4

----------
assay: Plasma PK of Compound A after a single 9-hour IV infusion in sleep-deprived healthy male subjects; format: in vivo, human; conditions: male, human, plasma, iv, 44 mg, 44 mg [LD] single 9-hour IV infusion; read-out: CL (Mean) (converted)
Measurement Kind: clearance (mL/min)
One number for each entry, in mL/min.

Please fill in: clearance reported for COC(=O)N1CCC[C@H](NS(C)(=O)=O)[C@@H]1CO[C@H]1CC[C@@H](c2ccccc2)CC1 [Compound A] = 773

----------
test: Multiple-dose plasma PK of IV Compound A in patients with NT2; type: in vivo, human; conditions: human, plasma, intravenous, 44 mg, Cmpd A 44 mg; Day 7; read-out: Cmax Mean
Measurement Kind: Cmax (ng/mL)
One number for each entry, in ng/mL.

Please fill in: Cmax reported for COC(=O)N1CCC[C@H](NS(C)(=O)=O)[C@@H]1CO[C@H]1CC[C@@H](c2ccccc2)CC1 [Compound A] = 76.7

----------
Experiment: Plasma PK of Compound A after a single 9-hour IV infusion in sleep-deprived healthy male subjects
Format: in vivo, human
Details: male, human, plasma, iv, 44 mg, 44 mg 9-h IV infusion; 2 h post infusion start; read-out: Plasma concentration (Median)
Experimental: This was a phase 1b, single-center, randomized, double-blind, double-dummy, placebo- and active-controlled, 4-period Williams design crossover study to evaluate the PK, PD, and safety of Compound A in sleep-deprived healthy volunteers. Compound A was administered as a 9-hour IV infusion. […] During the day before dosing on Day 1, participants were administered the KSS at scheduled timepoints. […] Subject's vital signs, including BP, were monitored during the dosing and testing period. […]
Measurement Kind: concentration at 2 h (ng/mL)
Give bare numbers, in ng/mL.

Please fill in: concentration at 2 h reported for COC(=O)N1CCC[C@H](NS(C)(=O)=O)[C@@H]1CO[C@H]1CC[C@@H](c2ccccc2)CC1 [Compound A] = 72.6

----------
assay: Plasma PK of Compound A after a single 9-hour IV infusion in sleep-deprived healthy male subjects; format: in vivo, human; conditions: male, human, plasma, iv, 112 mg, 112 mg 9-h IV infusion; 3 h post infusion end; read-out: Plasma concentration (GM)
Measurement Kind: concentration at 3 h (ng/mL)
Give bare numbers, in ng/mL.

Please fill in: concentration at 3 h reported for `COC(=O)N1CCC[C@H](NS(C)(=O)=O)[C@@H]1CO[C@H]1CC[C@@H](c2ccccc2)CC1` = 50.8

----------
test: Multiple-dose plasma PK of IV Compound A in patients with NT2; assay type: in vivo, human; conditions: human, plasma, intravenous, 44 mg, Cmpd A 44 mg; Day 1; read-out: AUClast Geo mean
Measurement Kind: AUC(0-t)
The number alone won't do; follow it with the unit.

Please fill in: AUC(0-t) reported for `COC(=O)N1CCC[C@H](NS(C)(=O)=O)[C@@H]1CO[C@H]1CC[C@@H](c2ccccc2)CC1` = 648 ng·h/mL

----------
Experiment: Multiple-dose plasma PK of IV Compound A in patients with NT2
Format: in vivo, human
Settings: human, plasma, intravenous, 112 mg, Cmpd A 112 mg; Day 1; read-out: Vss Mean
Method: The purpose of the study was to evaluate the safety, tolerability, pharmacokinetics and pharmacodynamics of Compound A after multiple days of IV administration in patients with NT2. NT2 patients were evaluated in Cohort C1 and C2 (Table 30). Compound A or placebo were administered via IV infusion over 9 hours once daily for 7 days. […] In this part, potential efficacy of Compound A was evaluated with MWT, ESS, KSS, night-time PSG (NPSG), and PGI-C as an exploratory PD assessment. […]
Measurement Kind: Vd (L)
Give bare numbers, in L.

Please fill in: Vd reported for COC(=O)N1CCC[C@H](NS(C)(=O)=O)[C@@H]1CO[C@H]1CC[C@@H](c2ccccc2)CC1 [Compound A] = 121
